assay: Acute toxicity in mice; assay type: in vivo; details: mouse, in vivo, ip, intra-peritoneal, single dose, read-out: LD50, i.p.
Structures can show the parent of a compound that is named as a salt.
Kindly supply the reported LD50 values for the records listed here.
Supply the numeric figure in mg/kg, leaving out any unit text.

Query block: I am curious: what LD50 value has been reported for c1ccc2oc(C3CN=C(N4CCOCC4)C3)cc2c1 (stereo not drawn) [Example 9, hydrochloride] ?
Result block: 142

Query block: Suppose we examine the compound CN1CCN(C2=NCC(c3cc4ccccc4o3)C2)CC1 (stereo not drawn) [Example 10] ; what LD50 value has been reported?
Result block: 142

Query block: Item CCN(CC)C1=NCC(c2cc3ccccc3o2)C1 (stereo not drawn) [Example 5] has what recorded LD50?
Result block: 58

Query block: What LD50 value was documented for this compound, c1ccc2oc(C3CN=C(N4CCCC4)C3)cc2c1 (stereo not drawn) [Example 8, hydrochloride] ?
Result block: 76

Query block: Which LD50 reading was recorded for the compound NC1=NCC(c2cc3ccccc3o2)C1 (stereo not drawn) [Example 1, hydrochloride] ?
Result block: 58

Query block: // LD50 lookup, key: CC(C)NC1=NCC(c2cc3ccccc3o2)C1 (stereo not drawn) [Example 3, hydrochloride]
Result block: 58

Query block: Consider the compound shown here: CNC1=NCC(c2cc3ccccc3o2)C1 (stereo not drawn) [Example 2, hydrochloride] What is its recorded LD50?
Result block: 58

Query block: # get_value(readout='LD50', item= c1ccc(CCNC2=NCC(c3cc4ccccc4o3)C2)cc1 (stereo not drawn) [Example 7, hydrochloride] )
Result block: 98

Query block: Which LD50 is reported for this compound? c1ccc(NC2=NCC(c3cc4ccccc4o3)C2)cc1 (stereo not drawn) [Example 6, hydrochloride]
Result block: 58

###

assay: Acute toxicity in mice; assay type: in vivo; conditions: mouse, in vivo, intravenous, single dose, read-out: LD50, i.v.
Structures can show the parent of a compound that is named as a salt.
MEASURED QUANTITY: LD50 (mg/kg)
Hi! Could you send only the number? It should be in mg/kg, unit omitted.

Query block: Name the reported LD50 value associated with the compound CN(C)C1=NCC(c2cc3ccccc3o2)C1 (centres unmarked) [Example 4, hydrochloride]
Result block: 38.5

Query block: Suppose we examine the compound NC1=NCC(c2cc3ccccc3o2)C1 (centres unmarked) [Example 1, hydrochloride] ; what LD50 value has been reported?
Result block: 46

Taken from patent US4443468A.
